- Assay target: ERBB2 (HER2) (Homo sapiens?) (UniProt P04626)
- Test name: filter
- Condition context: 6 (n) = NapdU [n positions 19,21,22,27,28,29,33,37,41,52 = modified dU]; Bmax 0.29; same buffer, 37 C
Measure name: Kd (nM)
Give your result in nM as a bare value.

## Input I'd like to know its Kd. The sequence in question is GAGTGACCGTCTGCCTGATGTTAGAGTTTGCCTGAGTGCCTCGCAAGGGCGTAACAACAGCCACACCACCAGCC [clone #11 (1194-2, 9-ER-N-B12_C06)]
## Output 3.06

* * *

- Assay target: ERBB2 (HER2) (Homo sapiens?)
- Test name: filter
- Condition context: 6 (n) in core = NapdU [n positions 19,21,33,34,49,51,57 = modified dU]; Bmax only 0.03; same buffer, 37 C
Measure name: pKd
When answering, recall that pKd equals minus log10 of the concentration in mol/L, and write that number alone.

## Input Quick check: pKd on ERBB2 (HER2) (Homo sapiens?), item GAGTGACCGTCTGCCTGGTCTGAACACCGAGATTAGCCGAACGAACGGTATGGACGTCAGCCACACCACCAGCC [clone #33 (9-ER-N-F02_A09)] ?
## Output 8.01

* * *

- Assay target: ERBB2 (HER2) (Homo sapiens?) (UniProt P04626)
- Test name: filter
- Condition context: 6 (n) in core = NapdU [n positions 19,20,25,34,48,50,52 = modified dU]; Bmax 0.25; same buffer, 37 C
Measure name: Kd (nM)
Give your result in nM as a bare value.

## Input I'd like to know its Kd. The sequence in question is GAGTGACCGTCTGCCTGGTTAGACTGAACGCACTGAGGGCCGCAGCCTATCTGAAGGCAGCCACACCACCAGCC [clone #10 (9-ER-N-B09_B06)]
## Output 3.71
